Taken from patent US8501446B2.

Below, each of the compounds is paired with its reported Ki value.
measured_target: JAK3 (Homo sapiens)
Sequence (P52333 1-1124): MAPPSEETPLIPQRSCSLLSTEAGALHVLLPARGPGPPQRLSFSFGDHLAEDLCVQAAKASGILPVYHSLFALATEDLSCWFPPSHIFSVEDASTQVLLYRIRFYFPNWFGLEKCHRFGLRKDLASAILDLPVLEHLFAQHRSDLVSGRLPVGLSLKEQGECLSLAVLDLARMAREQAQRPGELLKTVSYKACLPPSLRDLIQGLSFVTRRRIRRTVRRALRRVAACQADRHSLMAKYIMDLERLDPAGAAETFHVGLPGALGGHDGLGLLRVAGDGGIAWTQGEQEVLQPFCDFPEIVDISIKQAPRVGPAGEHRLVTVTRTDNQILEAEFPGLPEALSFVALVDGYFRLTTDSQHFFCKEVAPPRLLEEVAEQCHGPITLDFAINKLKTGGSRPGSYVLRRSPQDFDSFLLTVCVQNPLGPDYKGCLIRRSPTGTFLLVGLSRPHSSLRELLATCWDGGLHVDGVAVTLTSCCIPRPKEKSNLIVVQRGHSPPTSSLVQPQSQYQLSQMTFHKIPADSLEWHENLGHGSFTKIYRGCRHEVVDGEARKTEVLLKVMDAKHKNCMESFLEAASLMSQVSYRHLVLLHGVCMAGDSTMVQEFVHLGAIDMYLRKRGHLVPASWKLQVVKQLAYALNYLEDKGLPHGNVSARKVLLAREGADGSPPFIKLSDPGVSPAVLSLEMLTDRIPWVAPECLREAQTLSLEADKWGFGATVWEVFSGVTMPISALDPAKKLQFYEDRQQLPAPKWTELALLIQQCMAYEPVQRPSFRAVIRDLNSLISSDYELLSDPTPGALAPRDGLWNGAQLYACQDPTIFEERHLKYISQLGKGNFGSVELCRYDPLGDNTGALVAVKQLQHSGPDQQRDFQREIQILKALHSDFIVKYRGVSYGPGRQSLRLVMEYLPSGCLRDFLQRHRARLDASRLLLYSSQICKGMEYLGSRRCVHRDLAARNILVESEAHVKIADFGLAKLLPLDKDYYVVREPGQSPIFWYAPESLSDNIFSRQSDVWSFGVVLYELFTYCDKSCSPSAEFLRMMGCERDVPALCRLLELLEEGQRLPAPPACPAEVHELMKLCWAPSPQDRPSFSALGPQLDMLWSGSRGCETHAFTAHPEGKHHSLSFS
experiment: JAK3 inhibition assay (standard radioactive enzyme assay)
Assay type: biochemical
run_conditions: average Ki if more than one value determined

// worked examples, Ki included
>  <structure_smiles>
CC(=O)N1[C@H](C)CN(c2cccc(-c3c[nH]c4ncc(OCc5ccccc5)cc34)n2)C[C@@H]1C

>  <Ki>
< 500 nM

$$$$
>  <structure_smiles>
CC(=O)N1CCCN(c2nccc(-c3c[nH]c4ncc(Cl)cc34)n2)CC1

>  <Ki>
< 500 nM

$$$$
>  <structure_smiles>
O=C(O)c1ccc(NCc2ccccc2)nc1-c1c[nH]c2ncc(Cl)cc12

>  <Ki>
500 to 5000 nM

$$$$

# query: Ki of entry O=C(Nc1cccc(-c2c[nH]c3ncc(Cl)cc23)n1)OCc1ccccc1
500 to 5000 nM

# query: Ki of entry CC(=O)N1[C@H](C)CN(c2cc(C)c(C#N)c(-c3c[nH]c4ncc(Cl)cc34)n2)C[C@@H]1C
< 500 nM

# query: Ki of entry CC(=O)N1[C@H](C)CN(c2cccc(-c3c[nH]c4ncc(NC(=O)c5ccc(F)cc5)cc34)n2)C[C@@H]1C
< 500 nM

# query: Ki of entry CC(=O)N1CCCN(c2cccc(-c3c[nH]c4ncc(C(=O)NCCN5CCOCC5)cc34)n2)CC1
< 500 nM

# query: Ki of entry CC(=O)N1[C@H](C)CN(c2cccc(-c3c[nH]c4ncc(C(=O)N5CCCCC5)cc34)n2)C[C@@H]1C
500 to 5000 nM

# query: Ki of entry CC(=O)N1[C@H](C)CN(c2cc(C(N)=O)cc(-c3c[nH]c4ncc(Cl)cc34)n2)C[C@@H]1C
< 500 nM

# query: Ki of entry CC(=O)N1[C@H](C)CN(c2cccc(-c3c[nH]c4ncc(NC(=O)CCN5CCOCC5)cc34)n2)C[C@@H]1C
< 500 nM

# query: Ki of entry CC(=O)N1[C@H](C)CN(c2cccc(-c3c[nH]c4ncc(C(=O)NCCCN5CCN(C)CC5)cc34)n2)C[C@@H]1C
< 500 nM

# query: Ki of entry CC(=O)N1[C@H](C)CN(c2cccc(-c3c[nH]c4ncc(NC(=O)CN5CCNCC5)cc34)n2)C[C@@H]1C
< 500 nM
